# TGI values compiled below
System: OVCAR-8 ovarian
Assay: NCI tumour cell line growth inhibition, 48 h

These recorded examples may help you get a feel for the data.
{"columns": ["COMPOUND", "TGI"],
 "data": [
  ["C[C@H]1COCCN1c1nc(-c2cnc(N)cc2C(F)F)nc(N2CCOCC2)n1", "> 100 µM"],
  ["COc1cccc(/C=C2\\SC(=S)N(/C=C3\\C(=O)Oc4ccccc4C3=O)C2=O)c1O", "> 100 µM"],
  ["O=C(N/N=C/c1cc(Cl)ccc1O)c1ccccc1Nc1ccnc(C(F)(F)F)c1", "15.5 µM"],
  ["CC(=O)N1C(CCc2ccccc2)CC(C)(C=O)C1Cc1ccc(O[Si](C(C)C)(C(C)C)C(C)C)cc1 (stereo unspecified)", "18.6 µM"],
  ["CO[C@@H]1C[C@H]2[C@@H]3CC[C@H]([C@H](C)COC(C)=O)[C@@]3(C)CC[C@@H]2[C@@]2(C)CC[C@H]3C[C@]312", "> 100 µM"],
  ["Cc1cc2c(nn1)CCc1c-2no[n+]1[O-]", "> 100 µM"],
  ["CC(=O)CCc1ccc(Oc2c3c(nc4ccccc24)OCC3)cc1", "> 100 µM"],
  ["C=C(C)C1CCC2=CC(CC3(C)OC3C3=CC(C(=O)OC)=C(C1)O3)OC2=O (stereo unspecified)", "> 100 µM"],
  ["C[C@]12CC(C=O)C(=O)C(O)=C1CC[C@@H]1C2CC[C@@]2(C)C1CC[C@]2(C)O (stereo partly specified)", "89.9 µM"],
  ["O=C(O/N=c1/ccc(=O)/c(=N\\OC(=O)c2ccccc2)c1=O)c1ccccc1", "> 100 µM"]
]}

Could you tell me which TGI is on file for COc1ccc(C2Oc3c(cccc3-c3c(-c4ccc(O)cc4)oc4cc(O)cc(O)c4c3=O)C(=O)C2O)cc1O (stereo unspecified) ?
> 100 µM

Recorded TGI of O=C1NC2(CCCCC2)C2CCCCC=C12 (stereo unspecified) , please.
> 100 µM

Report TGI for NNC(=O)c1cc([N+](=O)[O-])ccc1NC(=O)C12CC3CC(CC(C3)C1)C2 please.
> 100 µM

Endpoint output: TGI of OC(CN1CCCC2CCCCC21)c1cc2ccccc2c2ccccc12 (stereo unspecified) . Value?
15.3 µM

----------
Tested on: SK-MEL-2 melanoma
Test: NCI tumour cell line growth inhibition, 48 h
READOUT_LABEL: GI50

Please review the entries below; each comes with its answer.
{"columns": ["COMPOUND", "ASSAYED_SYSTEM", "READOUT_LABEL", "REPORTED_RESULT"],
 "data": [
  ["C#CCOc1cccc(Nc2ncnc3cc(NC(=O)C=C)ccc23)c1", "SK-MEL-2 melanoma", "GI50", "20900 nM"],
  ["c1cc(C2CCCCC2)ccc1-c1cnc2nonc2n1", "SK-MEL-2 melanoma", "GI50", "1310 nM"],
  ["CN(C)CC1C(=O)O[C@H]2[C@H]1CC/C(COC(=O)NCc1ccc(Cn3c(=O)sn(CCCI)c3=O)cc1)=C\\CC[C@@]1(C)O[C@@H]21 (some centres not stated)", "SK-MEL-2 melanoma", "GI50", "6310 nM"],
  ["O=C(NCc1ccco1)C1CCN(S(=O)(=O)c2ccc(Cl)cc2)CC1", "SK-MEL-2 melanoma", "GI50", "> 100000 nM"],
  ["COC(=O)c1c2c(c(C)[n+]([O-])c1C)C(=O)C(NCc1ccc(F)cc1)=CC2=O", "SK-MEL-2 melanoma", "GI50", "1750 nM"],
  ["COc1ccc(/C=C2\\COc3ccc(O)c(O)c3C2=O)cc1OC", "SK-MEL-2 melanoma", "GI50", "2020 nM"]
]}

Please look up its GI50: Cc1c(Cl)cccc1NC(=O)c1sc2nc3c(cc2c1N)C(=O)CCC3
44 nM

What measured GI50 goes with CC(C)(C)C(=O)c1c(C(F)(F)F)n([O-])c2cc(Cl)c(Cl)cc2[n+]1=O ?
903 nM

Quick one: GI50 for CC(=O)CCc1ccc(Oc2c3c(nc4ccccc24)OCC3)cc1 ?
> 100000 nM

# input compound: CC(C)(O)CCc1cccc(C(=O)c2cnn(-c3ccc(F)cc3)c2N)c1 ; wanted: its GI50
> 25000 nM

----------
System: EKVX NSCLC
Assay: NCI tumour cell line growth inhibition, 48 h; in the data active = GI50 below about 0.43 µM; inactive = the rest
Choose one outcome from this list and give only that: active, inactive

{"columns": ["COMPOUND", "DISCRETE_LABEL"],
 "data": [
  ["CNCC(=O)NC(CO)C(=O)NC(CO)C(=O)NC1C(C(N)=O)OC(n2ccc(N)nc2=O)C(O)C1O (stereo not drawn)", "inactive"],
  ["C[C@H]1COCCN1c1nc(-c2cnc(N)cc2C(F)F)nc(N2CCOCC2)n1", "active"],
  ["Cc1cc(Cl)nc(N(CCCNc2ccnc3cc(Cl)ccc23)Cc2cccs2)n1", "inactive"],
  ["COC(=O)c1ccc(NC(=O)c2ccc(NC3=C(Cl)C(=O)N(Cc4ccccc4)C3=O)cc2)cc1", "inactive"],
  ["CCCCSc1nc(N)c2cn[nH]c2n1", "inactive"]
]}

Give the logged outcome of this assay for the following compound: CC(=O)[CH-]C(=O)c1ccccc1.CC(=O)[CH-]C(=O)c1ccccc1.CC[C@H](/C=C/C(C)[C@H]1CCC2[C@@H]3CC=C4C[C@@H]([O-])CC[C@]4(C)C3CC[C@@]21C)C(C)C.CC[C@H](/C=C/C(C)[C@H]1CCC2[C@@H]3CC=C4C[C@@H]([O-])CC[C@]4(C)C3CC[C@@]21C)C(C)C.Cl.[Ti+4] (stereo partly drawn)
inactive

For this compound, state the assay outcome: CCn1cc(C(=O)N/N=C/c2cccs2)c(=O)c2cc(F)c(N3CCNC(C)C3)c(F)c21 (stereo not drawn)
inactive

----------
Tested on: TK-10 renal
Test: NCI tumour cell line growth inhibition, 48 h
READOUT_LABEL: TGI

Known TGI results, listed for orientation:
{"columns": ["COMPOUND", "ASSAYED_SYSTEM", "TGI"],
 "data": [
  ["CCC[n+]1cc2cc3c(cc2c2c1-c1cc4c(cc1C2)OCO4)OCO3 (tested in a mixture with another compound)", "TK-10 renal", "38.6 µM"],
  ["C/C(O)=C(\\C=NC(=S)c1cccnc1)C(=O)Nc1ccccc1C", "TK-10 renal", "> 100 µM"],
  ["Cc1cc(N(CCC#N)CCC#N)ccc1/C=C(\\NC(=O)/C=C/c1ccccc1)C(=O)Nc1ccc(Cl)cc1", "TK-10 renal", "> 100 µM"]
]}

Requested field: TGI. Item: CSc1ccc(NC(=O)Nc2cc(C)ccn2)cc1
> 100 µM

Report TGI for Cc1ccc(NC(=S)C#N)c(C)c1 please.
> 100 µM

----------
Quick reference for TGI among some compounds
Tested on: EKVX NSCLC
Assay: NCI tumour cell line growth inhibition, 48 h

Known results for compounds:
{"columns": ["SUBSTANCE_SMILES", "REPORTED_RESULT"],
 "data": [
  ["C[C@H]1COCCN1c1nc(-c2cnc(N)cc2C(F)F)nc(N2CCOCC2)n1", "2 µM"],
  ["CC1(C)N=C(c2ccccc2)SC12S[C@@H]1CCCC[C@H]1S2", "> 100 µM"]
]}

Which measured TGI value corresponds to Cc1cc(S(=O)(=O)NC2=NCCCN2)c(S)cc1Cl ?
> 100 µM

What does the data say about its TGI? Entry: NNC(=O)CCc1ccc2ccc3ccccc3c2c1
97.9 µM

Find the recorded TGI belonging to COC(=O)[C@@H](NC(=O)[C@H](N)Cc1ccc(N(CCCl)CCCl)cc1)C(C)C and report it.
> 90.8 µM

Given the entry CCOC(=O)CC(=O)Nc1cccc2sc3ncccc3c(=O)c12 , report its measured TGI.
> 100 µM

Looking for the measured TGI of O=[N+]([O-])c1cccc(-c2cn3c(n2)Cc2ccccc2C3)c1 , can you help?
> 100 µM

Tell me the measured TGI of C#CCOc1cccc(Nc2ncnc3cc(NC(=O)C=C)ccc23)c1 , please.
> 100 µM

Fill in the blank: the reported TGI of COc1ccc2c(C)cc(N/N=C/c3ccc(C)s3)nc2c1 is ____.
32.2 µM

Given the entry CC(=O)c1ccc2c3c1[C@H]1O[C@H]1c1cccc(c1-3)[C@@H]1O[C@H]21 , report its measured TGI.
4.03 µM

Which TGI value is on record for CN(C)c1cccc(OC(=O)NCCCl)c1 ?
> 100 µM

----------
A collection of compounds and their measured log10(TGI)
Tested on: IGROV1 ovarian
Test: NCI tumour cell line growth inhibition, 48 h
Please note: log10 values; quantity TGI; unit µM.

{"columns": ["COMPOUND", "REPORTED_RESULT"],
 "data": [
  ["N#Cc1c(N)nc(SCc2ccccc2)c(C#N)c1-c1ccc(O)cc1", 1.48],
  ["N#C/C(=C\\c1ccc([N+](=O)[O-])o1)c1n[nH]c(Cc2ccccc2)n1", 0.49],
  ["CCC[CH2][Sn]([CH2]CCC)([O]C(=O)c1cc(F)ccc1F)[O]C(=O)c1cc(F)ccc1F", 0.50],
  ["O=C1C=C(NCC(c2ccccc2)c2ccccc2)C(=O)c2ncccc21", 0.95],
  ["CC(=O)OC1CC(OC2C(O)CC(OC3C(O)CC(OC4CCC5(C)C(CCC6C5CCC5(C)C(C7=CC(=O)OC7)CCC65O)C4)OC3C)OC2C)OC(C)C1OC1OC(CO)C(O)C(O)C1O (stereo unspecified)", -0.54]
]}

Now consider a different compound.
For C[C@]12Cc3conc3C(O)=C1CC[C@@H]1C2CC[C@@]2(C)C1CC[C@]2(C)O (stereo partly specified) , what is its reported log10(TGI)?
1.79
